The origin of these recorded values is ChEMBL document CHEMBL1151463.

# Test system: Human immunodeficiency virus 1
# Procedure Text: Antiviral activity against multinucleoside-resistant HIV1 NL4-3 harboring A62V, V75I, F77L, F116Y, Q151M mutation in viral reverse transcriptase infected in human MAGIC-5A cells assessed as inhibition of Lac+ foci expression after 40 hrs
# Assay type: functional, organism-based
# Test Settings: Human immunodeficiency virus 1, NL4-3, MAGIC-5A

Compound: O=c1[nH]cnc2c1ncn2[C@H]1CC[C@@H](CO)O1
EC50: 45 µM
--
Compound: Nc1nc(NC2CC2)c2ncn([C@H]3C=C[C@@H](CO)C3)c2n1
EC50: 40 µM
--
Compound: Cc1cn([C@H]2C[C@H](N=[N+]=[N-])[C@@H](CO)O2)c(=O)[nH]c1=O
EC50: 7 µM
--
Compound: Cc1cn([C@H]2C=C[C@@H](CO)O2)c(=O)[nH]c1=O
EC50: 79 µM
--
Compound: C[C@H](Cn1cnc2c(N)ncnc21)OCP(=O)(O)O [TENOFOVIR ANHYDROUS]
EC50: 26 µM
--
Compound: Nc1nc(=O)n([C@@H]2CS[C@H](CO)O2)cc1F
EC50: 0.79 µM
--
Compound: Nc1ccn([C@@H]2CS[C@H](CO)O2)c(=O)n1
EC50: 3.7 µM
